Assay: Tissue-blood distribution coefficients and volume of distribution
Conditions: whole blood, pH 7.5, Estimated volume of distribution Vd, residues in muscle, liver and blood only; exposed fish #3
experimental endpoint: Vd at 7 d (L/kg)
The reply should contain only the number, in L/kg.

>>> assay_result("CCCCCCCCCCCCCN")
1.28
>>> assay_result("CCCCCCCCCN")
0.8

// query Please report the recorded Vd at 7 d for CCCCCCCCCCCCN .
// result 1.07

// query Please report the recorded Vd at 7 d for CCCCCCCCCCCCCCCCN .
// result 1.1

* * *

Tested on: rainbow trout (Oncorhynchus mykiss)
Experiment: Tissue concentrations in rainbow trout after 7 d exposure via water (two mixtures)
Type: in vivo
Settings: rainbow trout (Oncorhynchus mykiss), in vivo, 7 d, pH 7.5
experimental endpoint: Concentration in skin, per surface area (ng cm-2)
The reply should contain only the number, in ng cm-2.

Known Concentration in skin, per surface area results, listed for orientation:
>>> assay_result("CCCCCCCCCN")
11.6
>>> assay_result("CCCCCCCCCCCCCCCCN")
30
>>> assay_result("CCCCCCCCCCCCN")
310

Consider the additional compound presented here.
// query Please report the recorded Concentration in skin, per surface area for CCCCCCCCCCCCCN .
// result 195
